meta.source: BindingDB's records for doi:10.1016/j.bmcl.2008.01.024

assay: Inhibition of CXCR2-mediated chemotaxis in Ba/F3 cells expressing human CXCR2
For each record, write down the corresponding pIC50.
One number for each entry, as −log10 of the molar value.

>  <compound>
CC[C@@H](Nc1c(Nc2cccc(C(=O)N(C)C)c2O)c(=O)c1=O)c1ccccn1

>  <pIC50>
8.35

$$$$
>  <compound>
CC[C@@H](Nc1c(Nc2cccc(C(=O)N(C)C)c2O)c(=O)c1=O)c1cc(C)on1

>  <pIC50>
7.91

$$$$

Prompt: Look at this molecule and give its reported pIC50. `CC[C@@H](Nc1c(Nc2cccc(C(=O)N(C)C)c2O)c(=O)c1=O)c1cc(Br)co1`
Response: 8.70
